meta.source: patent US8796244B2

Counter-ions that a name gives are not always drawn.
Overview of reported melting point across a group of compounds:
Note: unit °C is implicit; provide only the numeric part.

Example cases with answers are listed next.
O=C(NCC(F)(F)F)Nc1cccc(-c2cnc3cc(-c4ncc(CO)cn4)ccn23)c1 ... 222
O=C(Nc1cccc(-c2cnc3cc(-c4nncs4)ccn23)c1)NC1CC1 [Compound 158B] ... 205

Name the recorded melting point of the item Cc1nnc(-c2ccn3c(-c4cccc(NC(=O)NC5CC5)c4)cnc3c2)o1 [Compound 157B] in your answer.
229.6

Name the recorded melting point of the item Cn1cncc1C#Cc1ccn2c(-c3cccc(NC(N)=O)c3)cnc2c1 in your answer.
162

Name the recorded melting point of the item Nc1nc(-c2ccn3c(-c4cc(NC(=O)NCC(F)(F)F)cc(C(F)(F)F)c4)cnc3c2)ncc1F in your answer.
185

Name the recorded melting point of the item O=C(NCC(F)(F)F)Nc1cccc(-c2cnc3cc(-c4nccc(N5CCNCC5)n4)ccn23)c1 (as salt: HCl) (hydrate or solvate) in your answer.
200
